# credit: patent US20110294728A1

Each record here notes measured pKi.
- Experimental target: HIV-1 reverse transcriptase, heterodimeric p66/p51 (HIV-1), P03366
- Method description: RT polymerase inhibition assay
pKi: −log10 of the molar value.
Property measured: pKi

>>> df
                                     binder  observed_measurement
0  CGTKWLTEWIPLTAEC (modifications not checked) [P27C1]                  7.38
1  GTKWLTEWIPLTAEAE (modifications not checked) [PAW]                  6.15
2  CGTKWLTEVWPLC (modifications not checked) [P16C1]                  4.49
3  CGTKWLTEWIPLTAEAEC (modifications not checked) [PAW-C1]                  6.70
4  GTKWLTEVWPL (modifications not checked) [P16]                  4.84
5  GCKWLTEWIPLTAEAEC (modifications not checked) [PAW-C2]                  5.85
6  GTKWLTEWIPLTAE (modifications not checked) [P27]                  7.30
